- Assay system: HSA–monomeric Aβ42 (recombinant human Aβ42) (Homo sapiens, UniProt P02768)
- Sequence (P05067 672-713): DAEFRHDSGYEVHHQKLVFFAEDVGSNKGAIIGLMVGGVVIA
- Sequence (P02768 25-609): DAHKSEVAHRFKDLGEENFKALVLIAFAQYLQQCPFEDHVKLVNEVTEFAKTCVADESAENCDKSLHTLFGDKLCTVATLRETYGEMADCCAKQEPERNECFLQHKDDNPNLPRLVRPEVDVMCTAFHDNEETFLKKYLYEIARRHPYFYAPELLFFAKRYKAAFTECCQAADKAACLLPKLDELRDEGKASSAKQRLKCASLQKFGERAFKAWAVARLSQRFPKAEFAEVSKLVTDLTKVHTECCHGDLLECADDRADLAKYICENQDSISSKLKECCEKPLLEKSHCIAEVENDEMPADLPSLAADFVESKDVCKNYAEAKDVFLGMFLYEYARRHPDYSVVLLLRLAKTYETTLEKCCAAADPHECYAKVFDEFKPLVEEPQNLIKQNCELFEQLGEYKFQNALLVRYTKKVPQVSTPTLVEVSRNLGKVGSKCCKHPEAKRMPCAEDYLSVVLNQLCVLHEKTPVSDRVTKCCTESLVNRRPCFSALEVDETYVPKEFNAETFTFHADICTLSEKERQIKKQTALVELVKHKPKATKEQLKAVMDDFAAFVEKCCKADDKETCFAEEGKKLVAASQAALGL
- Assay remarks: SPR of HSA interaction with immobilized monomeric Aβ42, without/with SRO or TRP
- Conditions: KD (apparent, HSA–Aβ42), KD × 10^7, i.e. value × 10^−7 M; 10 µM HSA ligand; SPR 25 °C, pH 7.4; HSA 5–60 µM; mean ± SD
Below: a set of entries, each annotated with reported pKd.
Please treat pKd as minus the base-10 logarithm of the molar concentration.

- NCCc1c[nH]c2ccc(O)cc12 [SRO, 5-hydroxytryptamine]: 7.40

Alright, here's another compound for you.
Prompt: Given the entry N[C@@H](Cc1c[nH]c2ccccc12)C(=O)O , report its measured pKd.
Response: 7.22

###

- Assay system: HSA–monomeric Aβ40 (recombinant human Aβ40) (Homo sapiens, UniProt P02768)
- Sequence (P05067 672-711): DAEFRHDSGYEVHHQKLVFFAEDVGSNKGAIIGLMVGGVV
- Sequence (P02768 25-609): as the sequence (P02768 25-609) above
- Assay remarks: SPR of HSA interaction with immobilized monomeric Aβ40, without/with SRO or TRP
- Conditions: KD (apparent, HSA–Aβ40), KD × 10^7, i.e. value × 10^−7 M; 10 µM HSA ligand; SPR 25 °C, pH 7.4; HSA 5–60 µM; mean ± SD
Experimental readout: pKd
Please treat pKd as minus the base-10 logarithm of the molar concentration.

• N[C@@H](Cc1c[nH]c2ccccc12)C(=O)O [TRP, L-tryptophan] = 7.10

Alright, here's another molecule for you.
Prompt: Provide the documented pKd with HSA–monomeric Aβ40 (recombinant human Aβ40) (Homo sapiens, UniProt P02768) as the system for NCCc1c[nH]c2ccc(O)cc12 [SRO, 5-hydroxytryptamine]
Response: 7.40

###

- Assay system: HSA–monomeric Aβ42 (recombinant human Aβ42) (Homo sapiens, UniProt P02768)
- Assay remarks: SPR of HSA interaction with immobilized monomeric Aβ42, without/with SRO or TRP
- Conditions: KD (apparent, HSA–Aβ42), KD × 10^7, i.e. value × 10^−7 M; 1 mM HSA ligand; SPR 25 °C, pH 7.4; HSA 5–60 µM; mean ± SD
Experimental readout: Kd (nM)
Write it as a number; the unit nM goes unstated.

* N[C@@H](Cc1c[nH]c2ccccc12)C(=O)O [TRP, L-tryptophan] | 60

Alright, here's another compound for you.
Prompt: Given the entry NCCc1c[nH]c2ccc(O)cc12 [SRO, 5-hydroxytryptamine] , report its measured Kd.
Response: 7

###

- Assay system: HSA–monomeric Aβ40 (recombinant human Aβ40) (Homo sapiens, UniProt P02768)
- Assay remarks: SPR of HSA interaction with immobilized monomeric Aβ40, without/with SRO or TRP
- Conditions: KD (apparent, HSA–Aβ40), KD × 10^7, i.e. value × 10^−7 M; 1 mM HSA ligand; SPR 25 °C, pH 7.4; HSA 5–60 µM; mean ± SD
Below: a set of entries, each annotated with reported pKd.
Please treat pKd as minus the base-10 logarithm of the molar concentration.

- NCCc1c[nH]c2ccc(O)cc12 [SRO, 5-hydroxytryptamine]: 8.05

Alright, here's another compound for you.
Prompt: Given the entry N[C@@H](Cc1c[nH]c2ccccc12)C(=O)O [TRP, L-tryptophan] , report its measured pKd.
Response: 7.15
